Cited source: paper PMC10663500

Target: T1, mouse programmed cell death protein 1 Fc fusion protein (mPD-1-Fc), mPD-1 C60S (aa 25-167) (Mus musculus, UniProt Q02242, stabilised)
T1 construct: not cleaved; source: Expi293F, purified (Protein A, SEC; dimeric fraction); not shown: Fc (human), C-terminal, kept
Test: SPR; Carterra LSA; Fab from the ammonium sulfate precipitate of the culture supernatant immobilised on a NiHC200M chip; hPD-1 (1-1024 nM) or mPD-1-Fc (4-1024 nM) as analyte, fourfold dilution series, no regeneration; HBS-EP pH 7.4, 25 °C; medians over the spots of a construct, KD = koff/kon
Conditions: one partner purified
Measured koff by item
Measured Metric: koff (s⁻¹)

{"Binder": "toripalimab Fab L.P100L (Fab, V domains shown, as the heavy chain of Sm3; light chain of Sm3 with this change; numbers count from the chain's first residue; source: Brevibacillus, culture supernatant (ammonium sulfate precipitate); not shown: 6xHis, C-terminal, kept; 6xHN, C-terminal, kept) VH: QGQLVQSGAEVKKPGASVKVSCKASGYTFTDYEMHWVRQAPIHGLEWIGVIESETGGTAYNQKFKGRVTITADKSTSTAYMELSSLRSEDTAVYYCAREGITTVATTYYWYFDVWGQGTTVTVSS VL: DVVMTQSPLSLPVTLGQPASISCRSSQSIVHSNGNTYLEWYLQKPGQSPQLLIYKVSNRFSGVPDRFSGSGSGTDFTLKISRVEAEDVGVYYCFQGSHVLLTFGQGTKLEIK", "Measured Metric": "koff", "Observed Measurement": 0.000147}
{"Binder": "toripalimab Fab L.N35Y (Fab, V domains shown, as the heavy chain of Sm3; light chain of Sm3 with this change; numbers count from the chain's first residue; source: Brevibacillus, culture supernatant (ammonium sulfate precipitate); not shown: 6xHis, C-terminal, kept; 6xHN, C-terminal, kept) VH: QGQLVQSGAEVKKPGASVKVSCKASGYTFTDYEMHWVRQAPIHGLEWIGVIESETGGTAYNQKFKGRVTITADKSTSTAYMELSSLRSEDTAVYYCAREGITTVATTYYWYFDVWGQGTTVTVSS VL: DVVMTQSPLSLPVTLGQPASISCRSSQSIVHSNGYTYLEWYLQKPGQSPQLLIYKVSNRFSGVPDRFSGSGSGTDFTLKISRVEAEDVGVYYCFQGSHVPLTFGQGTKLEIK", "Measured Metric": "koff", "Observed Measurement": 0.00881}
{"Binder": "toripalimab Fab H.T107A (Fab, V domains shown, heavy chain of Sm3 with this change; numbers count from the chain's first residue; as the light chain of Sm3; source: Brevibacillus, culture supernatant (ammonium sulfate precipitate); not shown: 6xHis, C-terminal, kept; 6xHN, C-terminal, kept) VH: QGQLVQSGAEVKKPGASVKVSCKASGYTFTDYEMHWVRQAPIHGLEWIGVIESETGGTAYNQKFKGRVTITADKSTSTAYMELSSLRSEDTAVYYCAREGITTVATAYYWYFDVWGQGTTVTVSS VL: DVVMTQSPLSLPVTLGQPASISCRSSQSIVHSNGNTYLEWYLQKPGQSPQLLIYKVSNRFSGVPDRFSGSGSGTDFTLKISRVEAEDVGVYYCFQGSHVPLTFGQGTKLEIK", "Measured Metric": "koff", "Observed Measurement": 0.00703}
{"Binder": "toripalimab Fab H.N61A (Fab, V domains shown, heavy chain of Sm3 with this change; numbers count from the chain's first residue; as the light chain of Sm3; source: Brevibacillus, culture supernatant (ammonium sulfate precipitate); not shown: 6xHis, C-terminal, kept; 6xHN, C-terminal, kept) VH: QGQLVQSGAEVKKPGASVKVSCKASGYTFTDYEMHWVRQAPIHGLEWIGVIESETGGTAYAQKFKGRVTITADKSTSTAYMELSSLRSEDTAVYYCAREGITTVATTYYWYFDVWGQGTTVTVSS VL: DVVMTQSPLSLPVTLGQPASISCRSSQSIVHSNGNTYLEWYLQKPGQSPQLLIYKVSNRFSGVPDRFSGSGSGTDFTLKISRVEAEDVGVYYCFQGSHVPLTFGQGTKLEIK", "Measured Metric": "koff", "Observed Measurement": 0.00141}
{"Binder": "toripalimab Fab H.E52Y (Fab, V domains shown, heavy chain of Sm3 with this change; numbers count from the chain's first residue; as the light chain of Sm3; source: Brevibacillus, culture supernatant (ammonium sulfate precipitate); not shown: 6xHis, C-terminal, kept; 6xHN, C-terminal, kept) VH: QGQLVQSGAEVKKPGASVKVSCKASGYTFTDYEMHWVRQAPIHGLEWIGVIYSETGGTAYNQKFKGRVTITADKSTSTAYMELSSLRSEDTAVYYCAREGITTVATTYYWYFDVWGQGTTVTVSS VL: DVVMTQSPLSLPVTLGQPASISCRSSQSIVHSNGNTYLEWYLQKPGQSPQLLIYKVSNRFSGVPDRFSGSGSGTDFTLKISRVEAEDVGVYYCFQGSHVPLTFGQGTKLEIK", "Measured Metric": "koff", "Observed Measurement": 0.149}
{"Binder": "toripalimab Fab L.P100I (Fab, V domains shown, as the heavy chain of Sm3; light chain of Sm3 with this change; numbers count from the chain's first residue; source: Brevibacillus, culture supernatant (ammonium sulfate precipitate); not shown: 6xHis, C-terminal, kept; 6xHN, C-terminal, kept) VH: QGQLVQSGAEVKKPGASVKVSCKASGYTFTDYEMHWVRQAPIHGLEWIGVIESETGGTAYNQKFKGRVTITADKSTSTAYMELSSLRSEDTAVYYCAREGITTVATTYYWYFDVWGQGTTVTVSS VL: DVVMTQSPLSLPVTLGQPASISCRSSQSIVHSNGNTYLEWYLQKPGQSPQLLIYKVSNRFSGVPDRFSGSGSGTDFTLKISRVEAEDVGVYYCFQGSHVILTFGQGTKLEIK", "Measured Metric": "koff", "Observed Measurement": 0.000324}
